- Experiment: Toxicity liver stage against HepG2, at 10uM
- Format: cell-based
- Set-up: test concentration 10 uM, cell line HepG2-A16-CD81EGFP
- Condition: human, HepG2-A16-CD81EGFP cells; read-out: INHIBITION
Measured Quantity: cytotoxicity at 10 µM (%)
Reply with just the number (in %).

-- ask Please report the recorded cytotoxicity at 10 µM for Cc1cccc(S(=O)(=O)N2CC[C@H]3CO[C@H](CN(C)C)[C@H]3C2)c1 .
-- reply -92.1

-- ask Do the same for Cc1cccc(CN2CCCC3(CCN(CC4CCCO4)CC3)C2)n1 (stereo not given) please
-- reply -121

-- ask Do the same for Cc1ccc(C(=O)N2CCOC(c3nc(C(C)(C)C)n[nH]3)C2)c(=O)[nH]1 (stereo not given) please
-- reply 1.31

-- ask Do the same for O=C1COC2(COCCN(Cc3ccsc3)C2)CN1c1ccc(F)cc1 (stereo not given) please
-- reply 2.83

-- ask Do the same for O=C1COc2c(cccc2C(=O)N2CCCC(n3cccn3)C2)N1 (stereo not given) please
-- reply -13.8

====

- Experiment: Toxicity liver stage against HepG2, at 10uM
- Type: cell-based
- Design: test concentration 10 uM, cell line HepG2-A16-CD81EGFP
- Condition: human, HepG2-A16-CD81EGFP cells; read-out: INHIBITION
Measured Quantity: cytotoxicity at 10 µM (%)
Reply with just the number (in %).

-- ask Please report the recorded cytotoxicity at 10 µM for Cn1cccc1C(=O)N1CC[C@@H]2[C@@H]1CC(=O)N2CC1CCOCC1 .
-- reply -2.82

-- ask Do the same for O=C(NCc1ccccc1CN1CCCC1)Nc1cccnc1 please
-- reply 6.75

-- ask Do the same for O=C(CCn1cnc2cc(F)c(F)cc21)N1CCN(C2CC2)CC1 please
-- reply -1.54

-- ask Do the same for CCOCC1CCCN(C(=O)NCc2ccc(-c3ccn[nH]3)cc2)C1 (stereo unspecified) please
-- reply -3.25

-- ask Do the same for O=C(CNc1cc(F)ccc1OCC1CCCO1)N1CCOCC1 (stereo unspecified) please
-- reply -12.6

-- ask Do the same for Cc1cnn(C2CCCN(C(=O)CCc3ccncc3)C2)c1 (stereo unspecified) please
-- reply -10.7

-- ask Do the same for CCC(=O)NCC(=O)NC(C)c1ccc(OCCC(C)C)cc1 (stereo unspecified) please
-- reply 7.89

-- ask Do the same for C[C@@H]1CN(C(=O)c2cn(CCN3CCCCC3)nn2)C[C@H](C)O1 please
-- reply 4.89

-- ask Do the same for CCC(C)C(=O)NCCCn1nc(C)cc1C (stereo unspecified) please
-- reply 0.0879

-- ask Do the same for CC(C)(C)OC(=O)N1CCN(C(=O)CCn2cccn2)CC1 please
-- reply -14.6

-- ask Do the same for CCC[C@@H]1CN(c2ncnc3ccsc23)C[C@H]1NS(C)(=O)=O please
-- reply 3.73

====

- Experiment: Toxicity liver stage against HepG2, at 10uM
- Assay type: cell-based
- Set-up: test concentration 10 uM, cell line HepG2-A16-CD81EGFP
- Condition: human, HepG2-A16-CD81EGFP cells; read-out: INHIBITION
Measured Quantity: cytotoxicity at 10 µM (%)
Reply with just the number (in %).

-- ask Please report the recorded cytotoxicity at 10 µM for CCN1CCc2[nH]cnc2C12CCN(Cc1ccc3nsnc3c1)CC2 .
-- reply 3.72

-- ask Do the same for Cc1occc1C(=O)N1C[C@@H]2OCCN(C(C)C)[C@@H]2C1 please
-- reply -73.4

-- ask Do the same for CN(CC(F)(F)F)C(=O)Cn1cc(NC(=O)C(C)(C)C)cn1 please
-- reply 3.04

-- ask Do the same for O=C(c1cccs1)N1CCc2ncnc(C3CCOC3)c2CC1 (configuration not stated) please
-- reply -85.4

-- ask Do the same for COCCN(C(=O)c1cc(C)no1)c1ccc(C#N)cc1 please
-- reply 6.51

-- ask Do the same for CCc1nnsc1C(=O)NC1CCN(CCOc2ccc(Br)cc2)CC1 please
-- reply -9.56

-- ask Do the same for COCCN1C(=O)CO[C@H]2CN(CCCc3ccccc3)C[C@H]21 please
-- reply 52.8

-- ask Do the same for O=C(CCn1cncn1)NCC1CCOC1 (configuration not stated) please
-- reply -43.4

-- ask Do the same for O=C(NCC1CC1)[C@@H]1CC[C@@H]2[C@@H](CCN2Cc2ccco2)O1 please
-- reply 4.62

-- ask Do the same for Cc1cncc(C(=O)NCCSCc2cccs2)c1 please
-- reply -6.48

-- ask Do the same for Cn1cnc2c1CCN(Cc1csc(-c3ccsc3)n1)C2 please
-- reply -8.78

-- ask Do the same for CCc1nc(C2CCCN2Cc2nc(C3CC3)no2)no1 (configuration not stated) please
-- reply -21.4

-- ask Do the same for COC(=O)C1CCCN1Cc1ccco1 (configuration not stated) please
-- reply 9.21

-- ask Do the same for c1cnc(N2CC[C@@H](N3CCOCC3)[C@@H]2Cc2ccncc2)nc1 please
-- reply 2.9

-- ask Do the same for CC(C)Cc1nc(C[S+]([O-])CC(=O)NCc2ccccc2)no1 (configuration not stated) please
-- reply -6.45

-- ask Do the same for COCc1cc(NCc2ccccc2-n2cncn2)ncn1 please
-- reply -0.132

-- ask Do the same for Cc1ccnc(NCc2cn3c(C)csc3n2)n1 please
-- reply -5.66

-- ask Do the same for O=C([C@H]1C[C@H]2OCC[C@H]2N(CC2CCOCC2)C1)N1CCCC1 please
-- reply -0.972

-- ask Do the same for COc1cccc(-n2nnc(C(=O)N3CCC(C(N)=O)CC3)c2C)c1 please
-- reply -6.66

-- ask Do the same for COCC1CN(C(=O)Cc2ccccn2)Cc2cn(CC3CC3)nc21 (configuration not stated) please
-- reply -1.32

-- ask Do the same for c1cnnc(N2CCCC(NCc3nc(C4CC4)no3)C2)c1 (configuration not stated) please
-- reply -14.6

-- ask Do the same for O=C(Cc1csc(Cc2ccccn2)n1)NCCCN1CCCC1=O please
-- reply -6.29

-- ask Do the same for Cc1ncc(CN(C)CCO)c2cc(C(=O)c3ccc(Br)cc3)oc12 please
-- reply -0.227

-- ask Do the same for COc1cc(COCC2CCN(Cc3cccnc3)CC2)cc(OC)c1 please
-- reply 0

-- ask Do the same for Cc1nc(C)n(CC2CCCCN2CC(=O)Nc2cccnc2)n1 (configuration not stated) please
-- reply -12.4

-- ask Do the same for Cn1cnnc1S(=O)(=O)C1CCN(C(=O)c2cccs2)CC1 please
-- reply 6.03

-- ask Do the same for CN1CC(=O)N(c2ccccc2)CC12CCN(C(=O)c1cccs1)C2 (configuration not stated) please
-- reply -79.3

-- ask Do the same for CCCN1CCN(Cc2nc3ccccc3[nH]2)[C@H]2CS(=O)(=O)C[C@H]21 please
-- reply -137

-- ask Do the same for CCN(Cc1cccc(-c2ccncc2)c1)S(N)(=O)=O please
-- reply -12.6

-- ask Do the same for COc1ccc(N(C(=O)Cc2ccc(C)nc2)C(C)C)cc1F please
-- reply 0.854

-- ask Do the same for CC(=O)N1[C@H](Cn2cncn2)C[C@@H]2CN(Cc3nccs3)CC[C@@H]21 please
-- reply 10

-- ask Do the same for Cc1ccoc1C1=NNC(=CN2CCCC(Cn3cncn3)C2)O1 (configuration not stated) please
-- reply -2.07

-- ask Do the same for Cc1cccc(C2(NC(=O)CCN3C(=O)CCC3=O)CCCC2)c1 please
-- reply -17.4

-- ask Do the same for CC(C)c1noc(CCC(=O)N2CCN(C)CC2c2ccccc2)n1 (configuration not stated) please
-- reply -5.3

-- ask Do the same for c1ccc(CN2CCC(c3nccnc3-n3ccnc3)CC2)cc1 please
-- reply -19.6

-- ask Do the same for Cc1ccc2c(c1)SCC(=O)N2CC(=O)N1CCCC1c1cc(C)no1 (configuration not stated) please
-- reply 8.32

-- ask Do the same for COc1cc(F)ccc1-c1cc(CO)ccn1 please
-- reply 6.58

-- ask Do the same for CC(C)(C)CN(CCC#N)C(=O)Nc1cccc(N2CCNC2=O)c1 please
-- reply -9.86

-- ask Do the same for O=C(c1cc(CC2(NC3CCCCC3)COC2)no1)N1CCCCC1 please
-- reply 7.65

-- ask Do the same for CCc1ccc(-n2c(=O)[nH]c3nc(N4CCSCC4)ncc3c2=O)cc1 please
-- reply -4.14

-- ask Do the same for CN(C)C[C@H]1C[C@@H](CO)CN(C(=O)CCc2nc(Cl)n[nH]2)C1 please
-- reply -3.73

-- ask Do the same for CC(C)C1CCCN1CCCc1nc(-c2cccs2)no1 (configuration not stated) please
-- reply -16

-- ask Do the same for OCCOc1cc(F)ccc1NCc1nc(-c2ccoc2)no1 please
-- reply -46.9

-- ask Do the same for CCN(Cc1cnn(C)c1)C(=O)c1ccccc1O please
-- reply 1.89

-- ask Do the same for Cc1ccc(NC(=O)c2n[nH]c(-n3cnnc3)n2)cc1 please
-- reply 6.33

-- ask Do the same for CNc1nnc(CCn2nc(C)c(Br)c2C)s1 please
-- reply 2.83

-- ask Do the same for CCc1nnc2n1CCN(C(=O)c1ccc3cc[nH]c3c1)C2 please
-- reply -6.43
